# Tested on: brain-specific receptors of rats (3H-benzodiazepine binding)
# METHOD_DESCRIPTION: Inhibition of the binding of 3H-benzodiazepine to brain-specific receptors of rats
# Parameters: species or system rat (Wistar strain)
# COND: rat cortex P2-fraction; 3H-diazepam 1.5 nM or 3H-flunitrazepam 1.0 nM; pH 7.4; 30 min in ice; test concentration not given
Label true (1) when % Inhibition >= 90%; otherwise false (0).

**Query** Determine whether measured % Inhibition meets or exceeds 90% for O=C(c1ccco1)c1cnn2c(-c3cccc(-n4ccnc4)c3)ccnc12
**Result** false (0)

**Query** Determine whether measured % Inhibition meets or exceeds 90% for c1cc(-c2ccnc3ccnn23)cc(-n2ccnc2)c1
**Result** false (0)

**Query** Determine whether measured % Inhibition meets or exceeds 90% for CCc1nccn1-c1cccc(-c2ccnc3c(C(=O)c4ccccc4)cnn23)c1
**Result** true (1)

**Query** Determine whether measured % Inhibition meets or exceeds 90% for O=C(c1ccccc1)c1cnn2c(-c3cccc(-n4ccnc4)c3)ccnc12
**Result** true (1)

**Query** Determine whether measured % Inhibition meets or exceeds 90% for Cc1cn(-c2cccc(-c3ccnc4c(C(=O)c5cccs5)cnn34)c2)cn1
**Result** false (0)

**Query** Determine whether measured % Inhibition meets or exceeds 90% for N#Cc1cnn2c(-c3cccc(-n4ccnc4)c3)ccnc12
**Result** false (0)

**Query** Determine whether measured % Inhibition meets or exceeds 90% for Cc1nccn1-c1cccc(-c2ccnc3c(C(=O)c4ccco4)cnn23)c1
**Result** true (1)
